z-score: recorded values
# Protocol details: inhibition of PAO1 biofilm formation – strain PAO1, LB-PBS medium, absorbance 600 nm, primary screen (AID 1176); note: test concentration not given here
# Test context: P. aeruginosa PAO1 growth/biofilm, A600, 12 h; higher = more signal
Outcome measure: z-score

- Compound: "CN(C)CCCCCCNC(=O)[C@@H]1C[C@@H]2C(=O)NCC(=O)N2[C@@H]1c1cccc(OCCO)c1"
  Outcome measure: "z-score"
  Result value: 0.0067
- Compound: "C=C[C@H](OC)[C@@H](OC(=O)Nc1ccc(SC)cc1)c1ccc(OCCO)cc1"
  Outcome measure: "z-score"
  Result value: 0.662
- Compound: "O=C1O[C@@H](c2ccccc2)[C@@H](c2ccccc2)N2[C@@H](c3ccc(O)cc3)[C@]3(C(=O)Nc4ccccc43)[C@@H](C(=O)N3CCCCCCC3)[C@H]12"
  Outcome measure: "z-score"
  Result value: 1.34
- Compound: "CCCC[C@H]1OB(O)C[C@H]2C1=C(C)Cn1c(=O)n(-c3ccccc3)c(=O)n12"
  Outcome measure: "z-score"
  Result value: -0.638
- Compound: "CCCCN1CC=CC23O[C@@H]4/C=C\\CCCOC(=O)C4[C@H]2C(=O)N(C(C)CO)[C@@H]3C1=O (stereo partly drawn)"
  Outcome measure: "z-score"
  Result value: -0.857
- Compound: "CC(C)(C)OC(=O)CC[C@]1(C(=O)NCC(O)CO)N=C(c2ccc(OCCCO)cc2)O[C@H]1c1ccccc1CN=[N+]=[N-] (stereo partly drawn)"
  Outcome measure: "z-score"
  Result value: 1.65
- Compound: "CC1CC/C=C\\[C@H]2OC34C=CCN(Cn5nnc6ccccc65)C(=O)[C@H]3N(CCCO)C(=O)[C@@H]4C2C(=O)O1 (stereo partly drawn)"
  Outcome measure: "z-score"
  Result value: -0.221
- Compound: "CCCCC(=O)N(Cc1ccccc1F)[C@@H]1CC(C(=O)NCCO)=C[C@H](Oc2c(I)cc(CO)cc2OC)[C@H]1O"
  Outcome measure: "z-score"
  Result value: -0.447
- Compound: "COC(=O)c1c(CC[C@@H](CO)NC(=O)Nc2ncn[nH]2)oc(C(=O)Cc2ccccc2)c1C(=O)OC"
  Outcome measure: "z-score"
  Result value: 0.55
- Compound: "CC(C)NC(=O)[C@@H]1c2ccccc2C(=O)N(C2CCCCC2)[C@H]1c1ccc(CO)cc1"
  Outcome measure: "z-score"
  Result value: 0.36
- Compound: "Cc1ccc([C@H]2C(C(=O)O)=C[C@@H](C(C)C)N2S(=O)(=O)c2ccc(C)cc2)cc1"
  Outcome measure: "z-score"
  Result value: 0.546
- Compound: "CS(=O)(=O)CCOC(=O)C1=CC(c2ccc(CO)cc2)=CC(c2cccs2)N(Cc2cccc(OC(F)(F)F)c2)C=C1C(=O)OCCS(C)(=O)=O (stereo not drawn)"
  Outcome measure: "z-score"
  Result value: 0.907
- Compound: "C=CCOC(=O)[C@@H]1[C@H]2C(=O)O[C@H](c3ccccc3)[C@H](c3ccccc3)N2[C@H](c2ccc(OCCOC(=O)[C@H]3C[C@H]4C(=O)N[C@@H](CC(C)C)C(=O)N4[C@H]3c3cccc(OCCO)c3)cc2)[C@@]12C(=O)Nc1ccc(I)cc12"
  Outcome measure: "z-score"
  Result value: 3.38
- Compound: "Cc1ccc(S[C@]2(C(=O)NCC(F)(F)F)CC(=O)N(C3Cc4ccccc4C3)[C@@H]2c2ccc(CO)cc2I)cc1"
  Outcome measure: "z-score"
  Result value: 0.0898
- Compound: "C[N+](C)(C)CCCC[C@@H]1NC(=O)[C@@H]2C[C@H](C(=O)NCCCCCCNC(=O)CS)[C@H](c3cccc(OCCO)c3)N2C1=O"
  Outcome measure: "z-score"
  Result value: -0.117
- Compound: "O=C1O[C@@H](c2ccccc2)[C@@H](c2ccccc2)N2[C@@H](c3ccc(O)cc3)[C@]3(C(=O)Nc4ccccc43)[C@@H](C(=O)NC[C@H](O)c3ccccc3)[C@H]12"
  Outcome measure: "z-score"
  Result value: -0.489
- Compound: "O=C(CS)NCCCCCNC(=O)[C@H]1C[C@H]2C(=O)N[C@@H](Cc3ccccc3)C(=O)N2[C@H]1c1cccc(OCCO)c1"
  Outcome measure: "z-score"
  Result value: 0.932
- Compound: "C=CC[C@@]1(C(N)=O)N=C(c2ccc(OCCCO)cc2)O[C@@H]1c1ccccc1N=[N+]=[N-]"
  Outcome measure: "z-score"
  Result value: 0.401
- Compound: "CN1C(=O)C2C=CC(C(O)C3=C[C@H]4C[C@@H](C3)C4(C)C)N(Nc3ccc([N+](=O)[O-])cc3[N+](=O)[O-])C2C1=O (stereo partly drawn)"
  Outcome measure: "z-score"
  Result value: 0.434
- Compound: "COc1ccc([Si](C)(C)[C@@H]2[C@@H](CCO)O[C@]3(C(=O)N(Cc4cccc(N5CCCCC5=O)c4)c4ccccc43)[C@H]2C)cc1"
  Outcome measure: "z-score"
  Result value: 0.225
- Compound: "COc1ccccc1CN1C(=O)c2ccccc2[C@](Cc2ccccc2I)(C(=O)NCc2ccccc2)[C@@H]1c1ccc(CO)cc1"
  Outcome measure: "z-score"
  Result value: 0.0993
- Compound: "C=CCC(OC(C)=O)[C@@H]1[C@@H](N(Cc2ccc(-c3ccccc3)cc2)C(=O)c2ccc(C)cc2)c2cc(OCCCO)ccc2N1C(=O)Cc1ccc(OC)cc1 (stereo partly drawn)"
  Outcome measure: "z-score"
  Result value: -0.312
- Compound: "C=C(/C(=C/C[C@@H](OC(C)=O)c1ccc(CO)o1)c1cnc2ccccc2c1)C(C)C"
  Outcome measure: "z-score"
  Result value: 0.0721
- Compound: "O=C(NCCN1CCOCC1)[C@@H]1c2ccccc2C(=O)N(Cc2cc(F)cc(C(F)(F)F)c2)[C@H]1c1ccc(CO)cc1"
  Outcome measure: "z-score"
  Result value: -0.0807
- Compound: "CO[C@H]1O[C@H](CO)[C@@H](OC(=O)Nc2ccccc2-c2ccccc2)[C@H](OC(=O)Nc2ccccc2-c2ccccc2)[C@H]1OC(=O)Nc1ccccc1-c1ccccc1"
  Outcome measure: "z-score"
  Result value: 1.45
- Compound: "O=C1C2C=CC(C(O)c3ccc(B(O)O)cc3)N(Nc3ccc([N+](=O)[O-])cc3)C2C(=O)N1c1ccccc1 (stereo not drawn)"
  Outcome measure: "z-score"
  Result value: 0.188
- Compound: "O=C1OCC=C[C@H]2OC34C=CCN(c5ccc(Cl)cc5)C(=O)[C@H]3N(CCCO)C(=O)[C@@H]4[C@@H]12 (stereo partly drawn)"
  Outcome measure: "z-score"
  Result value: 0.276
- Compound: "CN(C)CCCC[C@@H]1NC(=O)[C@@H]2C[C@H](C(=O)NCCCCCN)[C@H](c3ccc(O)cc3)N2C1=O"
  Outcome measure: "z-score"
  Result value: -0.0491
